Test: Rifalazil solubility in surfactants and surfactant mixtures
Type: physicochemical
Conditions: Formulation M9 (excipient blend), aqueous with cosolvent or surfactant or cyclodextrin, thermodynamic from solid; in Formulation M9; 24 hrs equilibration
measured metric: solubility at 24 h (mg/mL)
One number for each entry, in mg/mL.

## Input Report solubility at 24 h for CO[C@H]1/C=C/O[C@@]2(C)Oc3c(C)c(O)c4c(=O)c(c5oc6cc(N7CCN(CC(C)C)CC7)cc(O)c6nc-5c4c3C2=O)NC(=O)/C(C)=C\C=C\[C@H](C)[C@H](O)[C@@H](C)[C@@H](O)[C@@H](C)[C@H](OC(C)=O)[C@@H]1C please.
## Output 19.6

Just for reference, patent US20070248668A1 is where these values come from.
